# system: Factor XIa (Homo sapiens)
# Sequence (P03951 388-625 limits assumed): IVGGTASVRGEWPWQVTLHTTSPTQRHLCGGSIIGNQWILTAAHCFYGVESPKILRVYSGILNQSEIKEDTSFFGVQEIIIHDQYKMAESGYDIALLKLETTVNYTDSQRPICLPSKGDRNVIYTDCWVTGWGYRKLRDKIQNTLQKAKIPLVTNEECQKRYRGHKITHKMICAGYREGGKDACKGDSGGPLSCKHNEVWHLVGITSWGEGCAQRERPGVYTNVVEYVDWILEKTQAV
# Sequence (P03951 19-387 partner limits assumed): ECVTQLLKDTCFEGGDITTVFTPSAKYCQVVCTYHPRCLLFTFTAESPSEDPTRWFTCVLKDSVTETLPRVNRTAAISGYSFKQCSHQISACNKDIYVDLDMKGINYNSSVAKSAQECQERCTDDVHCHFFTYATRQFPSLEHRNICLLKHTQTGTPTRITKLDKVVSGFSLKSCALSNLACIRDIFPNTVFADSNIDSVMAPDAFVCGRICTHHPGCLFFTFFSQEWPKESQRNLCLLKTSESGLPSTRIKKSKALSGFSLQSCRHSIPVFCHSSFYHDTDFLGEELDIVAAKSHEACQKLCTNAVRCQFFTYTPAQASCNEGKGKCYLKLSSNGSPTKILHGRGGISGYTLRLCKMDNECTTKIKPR
# experiment-notes: Factor XIa inhibition assay (FLINT) utilizing a fluorophore-quencher pair peptide substrate 5Fam-[…]-K5Tamra
# Format: biochemical
# condition: kinetic (KIN) reads; values in nM; read-out: FXIa KIN Inh IC50

compound: CC1CC(c2ncc(-c3ccnc(CO)c3F)[nH]2)n2c1nc(-c1c(-n3cnnn3)ccc(Cl)c1F)cc2=O (single isomer, unassigned) [Example 78]
qualifier-symbol: >
IC50 (nM): 100
//
compound: C[C@H]1C[C@@H](c2ncc(-c3ccnn3C)[nH]2)n2c1nc(-c1c(-n3cnnn3)ccc(Cl)c1F)cc2=O (stereo in doubt)
qualifier-symbol: =
IC50 (nM): 62.1
//
compound: C[C@H]1C[C@@H](c2ncc(-c3ccc4c(c3)CC(=O)N4)[nH]2)n2c1nc(-c1c(-n3cnnn3)ccc(Cl)c1F)cc2=O (stereo in doubt)
qualifier-symbol: =
IC50 (nM): 0.7
//
compound: Nc1ncc(-c2cnc([C@H]3CC4(CC4)c4cc(-c5c(-n6cnnn6)ccc(Cl)c5F)cc(=O)n43)[nH]2)s1
qualifier-symbol: =
IC50 (nM): 890
//
compound: C[C@H]1C[C@@H](c2ncc(-c3ncc(N)nc3C3CC3)[nH]2)n2c1nc(-c1c(-n3cnnn3)ccc(Cl)c1F)cc2=O (relative stereo)
qualifier-symbol: =
IC50 (nM): 39
//
compound: O=c1cc(-c2c(-n3cnnn3)ccc(Cl)c2F)nc2n1[C@H](c1nc(-c3ccnc(OCC(O)C(F)(F)F)c3F)c[nH]1)CC21CC1 (single isomer, unassigned) [Example 73]
qualifier-symbol: =
IC50 (nM): 22.1
//
compound: C[C@@H]1C[C@@H](c2ncc(-c3cn[nH]c3)[nH]2)n2c1nc(-c1c(-n3cnnn3)ccc(Cl)c1F)cc2=O (stereo in doubt)
qualifier-symbol: =
IC50 (nM): 22.6
//
compound: Cc1nc(N)cnc1-c1cnc([C@H]2CC(C)c3nc(-c4c(-n5cnnn5)ccc(Cl)c4F)cc(=O)n32)[nH]1 (some centres unmarked)
qualifier-symbol: >
IC50 (nM): 100

====

# system: human plasma kallikrein (Homo sapiens, UniProt P03952)
# Sequence (P03952 391-638 limits assumed): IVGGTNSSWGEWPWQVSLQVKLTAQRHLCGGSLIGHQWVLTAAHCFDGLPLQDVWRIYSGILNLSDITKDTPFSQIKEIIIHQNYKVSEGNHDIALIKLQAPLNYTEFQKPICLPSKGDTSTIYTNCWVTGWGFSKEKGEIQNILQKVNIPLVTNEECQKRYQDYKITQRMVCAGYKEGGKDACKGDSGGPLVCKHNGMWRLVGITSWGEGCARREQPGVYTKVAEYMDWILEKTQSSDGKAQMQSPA
# Sequence (P03952 20-390 partner limits assumed): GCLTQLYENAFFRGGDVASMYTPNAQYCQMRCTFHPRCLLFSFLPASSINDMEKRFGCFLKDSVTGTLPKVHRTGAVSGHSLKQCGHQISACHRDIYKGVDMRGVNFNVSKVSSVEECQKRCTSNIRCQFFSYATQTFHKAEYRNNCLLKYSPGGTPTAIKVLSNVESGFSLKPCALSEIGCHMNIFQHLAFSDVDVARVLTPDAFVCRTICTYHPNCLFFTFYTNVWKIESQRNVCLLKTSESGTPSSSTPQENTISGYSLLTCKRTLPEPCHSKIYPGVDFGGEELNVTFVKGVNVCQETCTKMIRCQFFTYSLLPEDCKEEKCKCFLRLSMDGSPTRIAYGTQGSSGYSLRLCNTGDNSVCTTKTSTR
# experiment-notes: Kallikrein inhibition assay (FLINT) utilizing a quenched AMC peptide substrate Z-Gly-Pro-Arg-AMC
# Assay type: biochemical
# condition: kinetic (KIN) reads; unit μM; read-out: Kallikrein KIN Inh IC50

compound: C[C@@H]1C[C@@H](c2ncc(-c3ccnn3C)[nH]2)n2c1nc(-c1c(-n3cnnn3)ccc(Cl)c1F)cc2=O (relative stereo)
IC50: > 10 µM

compound: O=c1cc(-c2c(-n3cnnn3)ccc(Cl)c2F)cc2n1[C@@H](c1ncc(-c3ccnc(CO)c3F)[nH]1)CC21CC1 (single isomer, unassigned)
IC50: > 1 µM

compound: C[C@H]1CC(c2ncc(-c3cnnn3C)[nH]2)n2c1nc(-c1c(-n3cnnn3)ccc(Cl)c1F)cc2=O (stereo in doubt)
IC50: > 10 µM

compound: C[C@@H]1C[C@@H](c2ncc(-c3ccnc(C(F)(F)F)c3)[nH]2)n2c1nc(-c1c(-n3cnnn3)ccc(Cl)c1F)cc2=O (relative stereo)
IC50: > 10 µM

compound: C[C@@H]1C[C@H](c2ncc(-c3ccn4nccc4c3)[nH]2)n2c1cc(-c1c(-n3cnnn3)ccc(Cl)c1F)cc2=O (stereo in doubt)
IC50: > 10 µM

compound: C[C@H]1C[C@H](c2ncc(-c3ncc(N)nc3C(F)F)[nH]2)n2c1nc(-c1c(-n3cnnn3)ccc(Cl)c1F)cc2=O (relative stereo)
IC50: > 1 µM

====

Attribute: IC50
# system: human plasma kallikrein (Homo sapiens, UniProt P03952)
# experiment-notes: Kallikrein inhibition assay (FLINT) utilizing a quenched AMC peptide substrate Z-Gly-Pro-Arg-AMC
# Type: biochemical
# condition: kinetic (KIN) reads; values in nM; read-out: Kallikrein KIN Inh IC50

molecule: Cc1nc(N)sc1-c1cnc([C@@H]2CC3(CC3)c3nc(-c4c(-n5cnnn5)ccc(Cl)c4F)cc(=O)n32)[nH]1 [Example 131]
IC50: 669 nM
--
molecule: C[C@H]1C[C@H](c2ncc(-c3ncc(N)nc3C3CC3)[nH]2)n2c1nc(-c1c(-n3cnnn3)ccc(Cl)c1F)cc2=O (relative stereo) [Example 90]
IC50: 298 nM
--
molecule: C[C@@H]1C[C@H](c2ncc(-c3ccnc(CN)c3)[nH]2)n2c1cc(-c1c(-n3cnnn3)ccc(Cl)c1F)cc2=O (relative stereo) [Example 38]
IC50: 539 nM
--
molecule: Cc1c(-c2cnc([C@H]3C[C@H](C)c4cc(-c5c(-n6cnnn6)ccc(Cl)c5F)cc(=O)n43)[nH]2)ccnc1C#N (relative stereo) [Example 31]
IC50: 635 nM

====

# system: Factor XIa (Homo sapiens)
# experiment-notes: Factor XIa inhibition assay (FLINT) utilizing a fluorophore-quencher pair peptide substrate 5Fam-[…]-K5Tamra
# Format: biochemical
# condition: kinetic (KIN) reads; values in nM; read-out: FXIa KIN Inh IC50

compound: CC(O)c1nccc(-c2cnc([C@@H]3CC4(CC4)c4cc(-c5c(-n6cnnn6)ccc(Cl)c5F)cc(=O)n43)[nH]2)c1F (single isomer, unassigned) [Example 5]
IC50: > 100 nM

compound: C[C@@H]1C[C@H](c2ncc(-c3ccc(N)nc3F)[nH]2)n2c1nc(-c1c(-n3cnnn3)ccc(Cl)c1F)cc2=O (stereo in doubt) [Example 138]
IC50: 258 nM

compound: CC1CC(c2ncc(-c3ccnc(CO)c3F)[nH]2)n2c1nc(-c1c(-n3cnnn3)ccc(Cl)c1F)cc2=O (single isomer, unassigned) [Example 77]
IC50: 19.6 nM

compound: COc1cc(-c2cnc([C@@H]3C[C@@H](C)c4nc(-c5c(-n6cnnn6)ccc(Cl)c5F)cc(=O)n43)[nH]2)ccn1 (stereo in doubt) [Example 98]
IC50: 143 nM

compound: C[C@H]1C[C@@H](c2ncc(-c3cnc(N)nc3)[nH]2)n2c1nc(-c1c(-n3cnnn3)ccc(Cl)c1F)cc2=O (stereo in doubt) [Example 119]
IC50: 8.7 nM

compound: C[C@H]1C[C@@H](c2[nH]c(-c3ccc(N)nc3F)nc2F)n2c1cc(-c1c(-n3cnnn3)ccc(Cl)c1F)cc2=O [Example 34]
IC50: 0.1 nM

compound: C[C@H]1C[C@@H](c2ncc(-c3ccc4nn(C)cc4c3)[nH]2)n2c1cc(-c1c(-n3cnnn3)ccc(Cl)c1F)cc2=O (stereo in doubt) [Example 46]
IC50: 431 nM

compound: C[C@H]1C[C@H](c2ncc(-c3cnns3)[nH]2)n2c1nc(-c1c(-n3cnnn3)ccc(Cl)c1F)cc2=O (relative stereo) [Example 106]
IC50: 933 nM

compound: C[C@H]1C[C@@H](c2ncc(-c3ncc(N)nc3C(F)F)[nH]2)n2c1nc(-c1c(-n3cnnn3)ccc(Cl)c1F)cc2=O (relative stereo) [Example 86]
IC50: > 100 nM
